target.under.test: UniProt:P81908
procedure.details: Inhibition of equine serum BuChE using butyrylthiocholine iodide as substrate preincubated for 10 mins followed by substrate addition measured for 5 mins by Ellman's method
measured.endpoint: log10(IC50) (log10 of the value in nM)
Please be aware that the numbers have been log10-transformed from IC50 in nM.

>  <compound.string>
Cc1ccc(C[n+]2ccc(Cn3c4ccccc4c4ccccc43)cc2)cc1

>  <target.under.test>
UniProt:P81908

>  <observed.measurement>
2.91

$$$$

Below is a list of compounds. For each, state its recorded log10(IC50).
1. Cc1ccccc1C[n+]1cccc(Cn2c3ccccc3c3ccccc32)c1
2. Clc1ccc(C[n+]2ccc(Cn3c4ccccc4c4ccccc43)cc2)cc1

Response:
1. 2.34
2. 3.20

Below is a list of compounds. For each, state its recorded log10(IC50).
1. Clc1cccc(C[n+]2ccc(Cn3c4ccccc4c4ccccc43)cc2)c1
2. Clc1ccc(C[n+]2cccc(Cn3c4ccccc4c4ccccc43)c2)cc1.[Cl-]

Response:
1. 2.54
2. 1.86

Below is a list of compounds. For each, state its recorded log10(IC50).
1. Cc1cccc(C[n+]2ccc(Cn3c4ccccc4c4ccccc43)cc2)c1
2. Fc1ccccc1C[n+]1cccc(Cn2c3ccccc3c3ccccc32)c1
3. Clc1ccccc1C[n+]1cccc(Cn2c3ccccc3c3ccccc32)c1
4. Clc1ccccc1C[n+]1ccc(Cn2c3ccccc3c3ccccc32)cc1
5. Cc1cccc(C[n+]2cccc(Cn3c4ccccc4c4ccccc43)c2)c1

Response:
1. 2.86
2. 2.57
3. 2.58
4. 2.77
5. 2.45

Below is a list of compounds. For each, state its recorded log10(IC50).
1. Fc1ccc(C[n+]2cccc(Cn3c4ccccc4c4ccccc43)c2)cc1
2. c1ccc(C[n+]2ccc(Cn3c4ccccc4c4ccccc43)cc2)cc1
3. Fc1ccccc1C[n+]1ccc(Cn2c3ccccc3c3ccccc32)cc1
4. Fc1cccc(C[n+]2cccc(Cn3c4ccccc4c4ccccc43)c2)c1

Response:
2.11
2.76
2.83
2.88

---

procedure.details: Selectivity index, ratio of IC50 for electric eel AChE to IC50 for equine serum BuChE
Binary label based on Ratio IC50 with cut-off 30: below gives label 1, not below gives label 0.

Please review the following examples before continuing.
>  <compound.string>
Fc1ccccc1C[n+]1ccc(Cn2c3ccccc3c3ccccc32)cc1

>  <cat>
label 1

$$$$
>  <compound.string>
Cc1ccccc1C[n+]1ccc(Cn2c3ccccc3c3ccccc32)cc1

>  <cat>
label 0

$$$$
>  <compound.string>
Cc1cccc(C[n+]2cccc(Cn3c4ccccc4c4ccccc43)c2)c1

>  <cat>
label 0

$$$$
>  <compound.string>
c1ccc(C[n+]2ccc(Cn3c4ccccc4c4ccccc43)cc2)cc1

>  <cat>
label 1

$$$$
>  <compound.string>
Clc1ccccc1C[n+]1ccc(Cn2c3ccccc3c3ccccc32)cc1

>  <cat>
label 1

$$$$

Query: Please state whether Ratio IC50 is below 30 for Clc1ccc(C[n+]2cccc(Cn3c4ccccc4c4ccccc43)c2)cc1.[Cl-]
Response: label 0

Query: Please state whether Ratio IC50 is below 30 for Fc1cccc(C[n+]2ccc(Cn3c4ccccc4c4ccccc43)cc2)c1
Response: label 1

Query: Please state whether Ratio IC50 is below 30 for Fc1ccc(C[n+]2ccc(Cn3c4ccccc4c4ccccc43)cc2)cc1
Response: label 1

Query: Please state whether Ratio IC50 is below 30 for Fc1cccc(C[n+]2cccc(Cn3c4ccccc4c4ccccc43)c2)c1
Response: label 0

Query: Please state whether Ratio IC50 is below 30 for Cc1ccc(C[n+]2cccc(Cn3c4ccccc4c4ccccc43)c2)cc1
Response: label 0

---

procedure.details: Selectivity index, ratio of IC50 for electric eel AChE to IC50 for equine serum BuChE
If the reported Ratio IC50 equals or exceeds 20, assign satisfied. If not, assign not satisfied.

>  <compound.string>
Clc1ccccc1C[n+]1cccc(Cn2c3ccccc3c3ccccc32)c1

>  <cat>
satisfied

$$$$

Query: Is the recorded value of Ratio IC50 equal to or greater than 20 for this compound? Cc1ccc(C[n+]2ccc(Cn3c4ccccc4c4ccccc43)cc2)cc1
Response: not satisfied

Query: Is the recorded value of Ratio IC50 equal to or greater than 20 for this compound? Cc1cccc(C[n+]2ccc(Cn3c4ccccc4c4ccccc43)cc2)c1
Response: satisfied

Query: Is the recorded value of Ratio IC50 equal to or greater than 20 for this compound? Fc1ccc(C[n+]2cccc(Cn3c4ccccc4c4ccccc43)c2)cc1
Response: satisfied

Query: Is the recorded value of Ratio IC50 equal to or greater than 20 for this compound? Clc1ccc(C[n+]2ccc(Cn3c4ccccc4c4ccccc43)cc2)cc1
Response: not satisfied

---

target.under.test: Cholinesterase (Equus caballus, UniProt P81908)
Sequence (P81908 whole entry): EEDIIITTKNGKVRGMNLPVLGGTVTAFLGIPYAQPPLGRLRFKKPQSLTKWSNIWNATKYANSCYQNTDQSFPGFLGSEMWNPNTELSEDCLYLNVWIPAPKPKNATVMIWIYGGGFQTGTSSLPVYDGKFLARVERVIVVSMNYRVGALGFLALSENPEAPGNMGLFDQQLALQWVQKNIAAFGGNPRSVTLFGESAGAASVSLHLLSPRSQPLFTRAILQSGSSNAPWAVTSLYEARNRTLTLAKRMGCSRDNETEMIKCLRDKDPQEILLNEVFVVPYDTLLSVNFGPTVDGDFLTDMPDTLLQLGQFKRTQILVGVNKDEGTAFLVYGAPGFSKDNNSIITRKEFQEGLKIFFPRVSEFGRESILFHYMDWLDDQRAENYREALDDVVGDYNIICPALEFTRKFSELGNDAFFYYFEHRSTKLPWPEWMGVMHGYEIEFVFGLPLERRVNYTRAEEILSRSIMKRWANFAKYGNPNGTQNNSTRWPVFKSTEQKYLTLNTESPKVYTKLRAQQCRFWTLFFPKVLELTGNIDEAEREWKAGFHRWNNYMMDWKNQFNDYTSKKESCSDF
procedure.details: Inhibition of equine serum BuChE using butyrylthiocholine iodide as substrate preincubated for 10 mins followed by substrate addition measured for 5 mins by Ellman's method
Hi there, I'd appreciate the recorded IC50 for every entry that follows.
Answers are plain numbers, in µM.

Below is a list of compounds. For each, state its recorded IC50.
1. Cc1ccc(C[n+]2cccc(Cn3c4ccccc4c4ccccc43)c2)cc1
2. Cc1ccccc1C[n+]1ccc(Cn2c3ccccc3c3ccccc32)cc1
3. Fc1cccc(C[n+]2ccc(Cn3c4ccccc4c4ccccc43)cc2)c1
4. Clc1cccc(C[n+]2cccc(Cn3c4ccccc4c4ccccc43)c2)c1
5. c1ccc(C[n+]2cccc(Cn3c4ccccc4c4ccccc43)c2)cc1
6. Fc1ccc(C[n+]2ccc(Cn3c4ccccc4c4ccccc43)cc2)cc1

Response:
1. 0.11
2. 0.35
3. 1.1
4. 0.16
5. 0.27
6. 0.89

---

Entries with reported pIC50 on Acetylcholinesterase (Electrophorus electricus)
Sequence (O42275 whole entry): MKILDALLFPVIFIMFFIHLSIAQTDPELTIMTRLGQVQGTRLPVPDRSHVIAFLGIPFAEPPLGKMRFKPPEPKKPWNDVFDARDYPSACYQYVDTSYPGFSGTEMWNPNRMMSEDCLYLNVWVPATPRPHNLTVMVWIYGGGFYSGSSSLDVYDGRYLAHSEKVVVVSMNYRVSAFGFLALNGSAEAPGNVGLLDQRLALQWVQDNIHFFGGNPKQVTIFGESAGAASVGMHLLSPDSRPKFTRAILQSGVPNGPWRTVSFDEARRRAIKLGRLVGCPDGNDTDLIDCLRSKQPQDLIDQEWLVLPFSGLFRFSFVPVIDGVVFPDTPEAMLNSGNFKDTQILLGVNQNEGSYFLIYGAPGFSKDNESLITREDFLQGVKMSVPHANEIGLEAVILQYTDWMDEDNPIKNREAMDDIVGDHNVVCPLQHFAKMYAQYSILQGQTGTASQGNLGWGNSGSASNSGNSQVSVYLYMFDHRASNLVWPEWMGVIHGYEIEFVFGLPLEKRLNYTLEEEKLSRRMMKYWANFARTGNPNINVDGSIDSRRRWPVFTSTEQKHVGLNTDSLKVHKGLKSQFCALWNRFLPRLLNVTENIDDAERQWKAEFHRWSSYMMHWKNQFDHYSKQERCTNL
pIC50: −log10 of the molar value.

Below are worked cases with known answers.
>  <compound.string>
Fc1cccc(C[n+]2cccc(Cn3c4ccccc4c4ccccc43)c2)c1

>  <pIC50>
< 4.00

$$$$
>  <compound.string>
Fc1ccccc1C[n+]1cccc(Cn2c3ccccc3c3ccccc32)c1

>  <pIC50>
< 4.00

$$$$

Proceed to the following item.
Param item: Clc1ccccc1C[n+]1cccc(Cn2c3ccccc3c3ccccc32)c1 ; param system: Acetylcholinesterase (Electrophorus electricus); output pIC50: < 4.00

---

Hi there, I'd appreciate the recorded Ratio IC50 for every entry that follows.
procedure.details: Selectivity index, ratio of IC50 for electric eel AChE to IC50 for equine serum BuChE
One number for each entry.

Below are worked cases with known answers.
>  <compound.string>
c1ccc(C[n+]2cccc(Cn3c4ccccc4c4ccccc43)c2)cc1

>  <measured.endpoint>
Ratio IC50

>  <observed.measurement>
229

$$$$
>  <compound.string>
Clc1cccc(C[n+]2cccc(Cn3c4ccccc4c4ccccc43)c2)c1

>  <measured.endpoint>
Ratio IC50

>  <observed.measurement>
205

$$$$
>  <compound.string>
Clc1cccc(C[n+]2ccc(Cn3c4ccccc4c4ccccc43)cc2)c1

>  <measured.endpoint>
Ratio IC50

>  <observed.measurement>
26.6

$$$$

Proceed to the following item.
Record Cc1ccccc1C[n+]1cccc(Cn2c3ccccc3c3ccccc32)c1 , field Ratio IC50: 239
